// data source = patent US20060079453A1

biological target: HLA-DR DRB1*0301 (DR3) (Homo sapiens, UniProt P01903+P01911, A100K/A102G/A103R/A169T/F55Y/I96L/K41T/L162R/M171V/P40S/Q125H/Q178H/Q39Y/R42S/S66N/T106N/T262R/W38E/Y61H); assay: biochemical; assay type: binding
Sequence (P01903 26-254 limits assumed, other chains not shown): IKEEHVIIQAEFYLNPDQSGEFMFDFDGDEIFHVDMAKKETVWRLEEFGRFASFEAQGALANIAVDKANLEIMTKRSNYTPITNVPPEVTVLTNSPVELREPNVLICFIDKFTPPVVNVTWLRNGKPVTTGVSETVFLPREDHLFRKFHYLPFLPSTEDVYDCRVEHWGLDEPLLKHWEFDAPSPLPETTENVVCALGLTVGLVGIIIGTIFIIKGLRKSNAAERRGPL
endpointLabel: IC50

>  <compoundStructure>
CC[C@H](C)[C@H](NC(=O)CNC(=O)[C@H](CC(C)C)NC(=O)[C@H](CC(C)C)NC(=O)[C@H](CCCNC(=N)N)NC(=O)[C@H](CO)NC(=O)[C@@H](NC(=O)[C@H](Cc1ccc(O)cc1)NC(=O)[C@@H]1CCCN1C(=O)[C@H](CO)NC(=O)CNC(=O)[C@@H](NC(=O)CN)C(C)C)C(C)C)C(=O)N[C@@H](CS)C(=O)N[C@@H](CC(C)C)C(=O)O

>  <endpointLabel>
IC50

>  <reportedMeasurement>
168 µM

$$$$
>  <compoundStructure>
CC[C@H](C)[C@H](NC(=O)[C@@H](NC(=O)[C@H](CC(C)C)NC(=O)[C@H](CC(=O)O)NC(=O)[C@@H](NC(=O)[C@H](Cc1ccccc1)NC(=O)[C@H](C)NC(=O)[C@H](Cc1ccccc1)NC(=O)[C@H](CC(=O)O)NC(=O)[C@H](CC(C)C)NC(=O)[C@@H](N)C(C)C)[C@@H](C)O)[C@@H](C)O)C(=O)N[C@H](C(=O)N[C@@H](Cc1ccc(O)cc1)C(=O)N[C@@H](CCCNC(=N)N)C(=O)N[C@@H](CC(=O)O)C(=O)O)C(C)C

>  <endpointLabel>
IC50

>  <reportedMeasurement>
0.03 µM

$$$$

###

molecular target: HLA-DR DRB1*0405 (DR4) (Homo sapiens, UniProt P01903+P01911, A100R/A169T/D86S/F76Y/I96L/K127E/L162R/M171V/N62H/P40V/Q125Y/R42H/S133A/S149N/S66Y/V115G/V209L/W38E); test: biochemical; assay type: binding; details: DRB1 *0405
pIC50: −log10 of the molar value. No end group written: not given here.
Range-based classes on measured pIC50: low value: < 5; medium value: ≥ 5 and < 7; high value: ≥ 7

>  <inputSequence>
QDYVLDLQPEATDLH

>  <classAssignment>
medium value

$$$$
>  <inputSequence>
RVIKNSIRLTL

>  <classAssignment>
low value

$$$$
>  <inputSequence>
LGFLQRSSNCQSQKL

>  <classAssignment>
medium value

$$$$
>  <inputSequence>
GSHLVEALYLVCGER

>  <classAssignment>
medium value

$$$$
>  <inputSequence>
VEALYLVCGERGSFY

>  <classAssignment>
medium value

$$$$
>  <inputSequence>
SAAPLRTITADTFRK

>  <classAssignment>
medium value

$$$$
>  <inputSequence>
VPTLQDVVLELTPQT

>  <classAssignment>
medium value

$$$$
>  <inputSequence>
QDVVLELTPQTEIDL

>  <classAssignment>
high value

$$$$
>  <inputSequence>
VEALYLVTGERGFFY

>  <classAssignment>
medium value

$$$$
>  <inputSequence>
YGAVVNLRKTVVNFP

>  <classAssignment>
low value

$$$$
>  <inputSequence>
YLVCGERGFLYTPKT

>  <classAssignment>
low value

$$$$
>  <inputSequence>
VNFYAWKRMEVGQQA

>  <classAssignment>
high value

$$$$
>  <inputSequence>
YYDYSVYGATLESIT

>  <classAssignment>
medium value

$$$$
>  <inputSequence>
LKLVYRDDFPYAVCR

>  <classAssignment>
medium value

$$$$
>  <inputSequence>
QSQKLLWQLNGRLEY

>  <classAssignment>
high value

$$$$
>  <inputSequence>
LRAFQQLFLNTLSFV

>  <classAssignment>
high value

$$$$
>  <inputSequence>
RMSSLHLKRYYGRIL

>  <classAssignment>
high value

$$$$
>  <inputSequence>
EMLQNIFAIFRQDSS

>  <classAssignment>
medium value

$$$$
>  <inputSequence>
ELVSEFSRMARDPQ

>  <classAssignment>
low value

$$$$
>  <inputSequence>
WYRYSVYGTTLEKLT

>  <classAssignment>
high value

$$$$
>  <inputSequence>
GSHLVEALYLVTGER

>  <classAssignment>
low value

$$$$
>  <inputSequence>
NSLVYGASDSNIYDL

>  <classAssignment>
medium value

$$$$
>  <inputSequence>
KEDSHTAWTIVRVEI

>  <classAssignment>
medium value

$$$$
>  <inputSequence>
LRIVYRDGNPFAVCK

>  <classAssignment>
medium value

$$$$
>  <inputSequence>
TEVLDFAFTDLTIVY

>  <classAssignment>
medium value

$$$$
>  <inputSequence>
FTRGKRMSSLHLKRY

>  <classAssignment>
medium value

$$$$
